B1: CDC25A (parent)
chain: TVAGKHQDLKYISPEIMASVLNGK

variants of: B1; assay: protein stability index of a GFP-peptide fusion (GPS, HEK-293T) (PSI 1-6); higher = more stable; conditions: c terminus: a fixed tail appended;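 note: lentivirally expressed fusions sorted by FACS into six bins by GFP to DsRed ratio, PSI derived from sequencing read proportions per bin multiplied by bin number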
Assignment: determine reported protein stability index for the given variants.
Form rule: numeric answer, no unit written next to it.

Supply reported protein stability index belonging to this variant: TVAGEHQDLKYISPEIMASVLNGK [K5E] 3.5

Supply reported protein stability index belonging to this variant: TVAGKHQDLKYISPEIMASVLVGK [N22V] 2.55

Supply reported protein stability index belonging to this variant: TVAGKHQDLKYVSPEIMASVLNGK [I12V] 3.71

Supply reported protein stability index belonging to this variant: TVAGKHQDLKYIGPEIMASVLNGK [S13G] 3.37

Supply reported protein stability index belonging to this variant: TVAGKHQMLKYISPEIMASVLNGK [D8M] 2.25

Supply reported protein stability index belonging to this variant: TVAGKHQDLKYISPEIMASYLNGK [V20Y] 2.72

Supply reported protein stability index belonging to this variant: TVAGKHQDLKYISPEIMASVLNGQ [K24Q] 3.4

Supply reported protein stability index belonging to this variant: TVAGKHQDLKYISPEIMMSVLNGK [A18M] 2.33

Supply reported protein stability index belonging to this variant: TVAGKHQDLKYISPENMASVLNGK [I16N] 3.8

Supply reported protein stability index belonging to this variant: TVAGKHQDLKYISPEIMVSVLNGK [A18V] 2.54

Supply reported protein stability index belonging to this variant: TVAKKHQDLKYISPEIMASVLNGK [G4K] 3.06

Supply reported protein stability index belonging to this variant: TVAGKHQDLKYISPEIMASVLMGK [N22M] 2.66

Supply reported protein stability index belonging to this variant: TVAGKHQDLKYISPEIMASVLNAK [G23A] 2.96

Supply reported protein stability index belonging to this variant: TVAGKHQDLKYISPEIMASVGNGK [L21G] 3.83

Supply reported protein stability index belonging to this variant: TVAGKHQILKYISPEIMASVLNGK [D8I] 2.35

Supply reported protein stability index belonging to this variant: TVAGKHQDLKYISPEIMASVLLGK [N22L] 2.56

Supply reported protein stability index belonging to this variant: RVAGKHQDLKYISPEIMASVLNGK [T1R] 2.52

Supply reported protein stability index belonging to this variant: TVAGKHQDLKYISPEIMASHLNGK [V20H] 3.33

Supply reported protein stability index belonging to this variant: PVAGKHQDLKYISPEIMASVLNGK [T1P] 3.34

Supply reported protein stability index belonging to this variant: TVAGKHQDLKYDSPEIMASVLNGK [I12D] 4.16

Supply reported protein stability index belonging to this variant: TVAGKHQDLKYYSPEIMASVLNGK [I12Y] 3.37

Supply reported protein stability index belonging to this variant: TVAGKHQDLWYISPEIMASVLNGK [K10W] 1.62

Supply reported protein stability index belonging to this variant: TVAGKHQDLKYISREIMASVLNGK [P14R] 2.91

Supply reported protein stability index belonging to this variant: TVAGPHQDLKYISPEIMASVLNGK [K5P] 3.17

Supply reported protein stability index belonging to this variant: TVAGKHQDLKYISPEIMISVLNGK [A18I] 2.13

Supply reported protein stability index belonging to this variant: TVAGKHQDLKYISPEIMASVQNGK [L21Q] 4

Supply reported protein stability index belonging to this variant: TVAGKIQDLKYISPEIMASVLNGK [H6I] 2.63

Supply reported protein stability index belonging to this variant: TVAGKHQDLKYISPEIMASDLNGK [V20D] 4.35

Supply reported protein stability index belonging to this variant: TVAGKHQDLKYISPEIMASVLNGP [K24P] 3.26

Supply reported protein stability index belonging to this variant: TVAGNHQDLKYISPEIMASVLNGK [K5N] 3.07

Supply reported protein stability index belonging to this variant: TVAGKHQDLKYISPEIMKSVLNGK [A18K] 3.16

Supply reported protein stability index belonging to this variant: TVAGKHQDLKYISPSIMASVLNGK [E15S] 3.09

Supply reported protein stability index belonging to this variant: TVAGKHQDLKYISPKIMASVLNGK [E15K] 2.68

Supply reported protein stability index belonging to this variant: TVAGKHQDLKRISPEIMASVLNGK [Y11R] 3.59

Supply reported protein stability index belonging to this variant: TVAGKHQDLAYISPEIMASVLNGK [K10A] 2.99

Supply reported protein stability index belonging to this variant: TVAGKHQDLKYISPLIMASVLNGK [E15L] 1.99

Supply reported protein stability index belonging to this variant: TVAGKHQDLKFISPEIMASVLNGK [Y11F] 2.77

Supply reported protein stability index belonging to this variant: TVAGKHQDLFYISPEIMASVLNGK [K10F] 1.78

Supply reported protein stability index belonging to this variant: TVAGKHQDLKYISPEIYASVLNGK [M17Y] 3.1

Supply reported protein stability index belonging to this variant: TVAGKHQDLCYISPEIMASVLNGK [K10C] 2.52

Supply reported protein stability index belonging to this variant: VVAGKHQDLKYISPEIMASVLNGK [T1V] 2.52

Supply reported protein stability index belonging to this variant: TVAGFHQDLKYISPEIMASVLNGK [K5F] 3.2

Supply reported protein stability index belonging to this variant: TVAGKHQDLKYISYEIMASVLNGK [P14Y] 2.79

Supply reported protein stability index belonging to this variant: TVAGKHQDLKYISPEIMASVLNGM [K24M] 2.36

Supply reported protein stability index belonging to this variant: TVAGKHQDLKYISPETMASVLNGK [I16T] 3.62

Supply reported protein stability index belonging to this variant: TVAGKMQDLKYISPEIMASVLNGK [H6M] 2.26

Supply reported protein stability index belonging to this variant: TVAGKHQDLKYINPEIMASVLNGK [S13N] 3.32

Supply reported protein stability index belonging to this variant: TVAGKHQDLKYISPEIPASVLNGK [M17P] 4

Supply reported protein stability index belonging to this variant: TVAGKHQDLKYFSPEIMASVLNGK [I12F] 2.94

Supply reported protein stability index belonging to this variant: TVAGKHQDLKYISPEIMNSVLNGK [A18N] 3.1

Supply reported protein stability index belonging to this variant: TVAGKHQDLKYISPEYMASVLNGK [I16Y] 2.85

Supply reported protein stability index belonging to this variant: TVAGKHQDLKYISPEIMASILNGK [V20I] 2.63

Supply reported protein stability index belonging to this variant: TVAGKHQDLKYIQPEIMASVLNGK [S13Q] 3.53

Supply reported protein stability index belonging to this variant: TVAGKHQDLKKISPEIMASVLNGK [Y11K] 3.53

Supply reported protein stability index belonging to this variant: TVAGHHQDLKYISPEIMASVLNGK [K5H] 3.54

Supply reported protein stability index belonging to this variant: TVAGKHQDLKYISPEIMASQLNGK [V20Q] 3.68

Supply reported protein stability index belonging to this variant: TVAGKHQDLKYIFPEIMASVLNGK [S13F] 2.39

Supply reported protein stability index belonging to this variant: TVAGKHQDLKYISPEIMAWVLNGK [S19W] 1.94

Supply reported protein stability index belonging to this variant: TVAGKHQDLKYISGEIMASVLNGK [P14G] 3.14

Supply reported protein stability index belonging to this variant: TVAGKHQDIKYISPEIMASVLNGK [L9I] 3.25

Supply reported protein stability index belonging to this variant: TVAGKHQDLKYSSPEIMASVLNGK [I12S] 3.91

Supply reported protein stability index belonging to this variant: TVAGKHQDLKYISPEFMASVLNGK [I16F] 2.87

Supply reported protein stability index belonging to this variant: TVAGKHQDLKYISPTIMASVLNGK [E15T] 2.63

Supply reported protein stability index belonging to this variant: TVAGKHQDLKYISPEIMASVLNGS [K24S] 2.94

Supply reported protein stability index belonging to this variant: TVAGKHQDLKYISPEIMASVTNGK [L21T] 3.84

Supply reported protein stability index belonging to this variant: TVAGCHQDLKYISPEIMASVLNGK [K5C] 2.61

Supply reported protein stability index belonging to this variant: TVAGKHQDLKYISPEIMAGVLNGK [S19G] 2.77

Supply reported protein stability index belonging to this variant: TVAGKHQDLKYISPEIMAHVLNGK [S19H] 2.88

Supply reported protein stability index belonging to this variant: TVAGKHQDLKYIVPEIMASVLNGK [S13V] 2.65

Supply reported protein stability index belonging to this variant: TVAQKHQDLKYISPEIMASVLNGK [G4Q] 3.42

Supply reported protein stability index belonging to this variant: TVAGKHQDDKYISPEIMASVLNGK [L9D] 4.09

Supply reported protein stability index belonging to this variant: TVAPKHQDLKYISPEIMASVLNGK [G4P] 3.44

Supply reported protein stability index belonging to this variant: TVAGKHQDLKYISPEIMASVLNCK [G23C] 2.63

Supply reported protein stability index belonging to this variant: TVAGKHQHLKYISPEIMASVLNGK [D8H] 2.51

Supply reported protein stability index belonging to this variant: TVAGKHQDLKYISPAIMASVLNGK [E15A] 2.77

Supply reported protein stability index belonging to this variant: TVAGKHQDLKYISPEIMASVLNGW [K24W] 1.93

Supply reported protein stability index belonging to this variant: TVAGKFQDLKYISPEIMASVLNGK [H6F] 2.75

Supply reported protein stability index belonging to this variant: TVAGKCQDLKYISPEIMASVLNGK [H6C] 2.57

Supply reported protein stability index belonging to this variant: TVAGKHQDLKYISPEIMWSVLNGK [A18W] 1.97

Supply reported protein stability index belonging to this variant: TVAGKHTDLKYISPEIMASVLNGK [Q7T] 2.69

Supply reported protein stability index belonging to this variant: TVAGKHQDLKHISPEIMASVLNGK [Y11H] 3.73

Supply reported protein stability index belonging to this variant: TVAGKHQDLKYTSPEIMASVLNGK [I12T] 3.76

Supply reported protein stability index belonging to this variant: TVAGKHQDLKYISPEIVASVLNGK [M17V] 3.42

Supply reported protein stability index belonging to this variant: TVAGKHQDLKYISPEILASVLNGK [M17L] 2.64

Supply reported protein stability index belonging to this variant: TVAGKHQDLKYISPEIMASVLNDK [G23D] 3.57

// provenance: the supplement of paper PMC10567573
